What inhibition was measured for each of the following?
biological target: Acetylcholinesterase (Electrophorus electricus); assay: Inhibition of electric eel AChE at 100 uM using acetylthiocholine chloride as a substrate incubated for 20 mins followed by substrate addition and measured after 20 mins by Ellman's method relative to control; settings: time 40.0 min
Sequence (O42275 whole entry): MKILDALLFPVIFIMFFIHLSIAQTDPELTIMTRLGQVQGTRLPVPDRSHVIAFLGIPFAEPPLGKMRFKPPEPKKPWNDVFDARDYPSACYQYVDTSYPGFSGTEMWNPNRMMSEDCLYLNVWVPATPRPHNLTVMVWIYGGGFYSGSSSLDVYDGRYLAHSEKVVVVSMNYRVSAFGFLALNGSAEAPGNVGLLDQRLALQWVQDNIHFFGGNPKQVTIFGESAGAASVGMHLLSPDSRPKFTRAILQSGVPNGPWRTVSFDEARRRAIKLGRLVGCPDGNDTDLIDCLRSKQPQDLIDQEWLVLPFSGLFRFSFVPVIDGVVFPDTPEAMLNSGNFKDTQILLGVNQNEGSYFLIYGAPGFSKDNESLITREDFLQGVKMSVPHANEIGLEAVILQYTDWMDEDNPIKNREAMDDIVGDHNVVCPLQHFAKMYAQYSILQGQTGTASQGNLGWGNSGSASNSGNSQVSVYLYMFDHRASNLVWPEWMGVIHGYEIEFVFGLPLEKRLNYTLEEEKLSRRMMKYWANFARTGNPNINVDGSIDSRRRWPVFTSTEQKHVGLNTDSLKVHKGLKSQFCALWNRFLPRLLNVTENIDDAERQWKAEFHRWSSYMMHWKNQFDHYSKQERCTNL

Challenge: Look up inhibition with Acetylcholinesterase (Electrophorus electricus) for this compound: C/C=C1\[C@H]2C=C(C)C[C@]1(Nc1cccc(C)c1)c1ccc(=O)[nH]c1C2
Response given: > 92%

Challenge: Note, next up: C/C=C1\[C@H]2C=C(C)C[C@]1(Nc1ccc(F)cc1)c1ccc(=O)[nH]c1C2
Response given: > 92%

Challenge: Note, next up: C/C=C1\[C@H]2C=C(C)C[C@]1(Nc1ccc(OC)cn1)c1ccc(=O)[nH]c1C2
Response given: 106%

Challenge: Note, next up: C/C=C1\[C@H]2C=C(C)C[C@]1(Nc1ncc(C)cc1C)c1ccc(=O)[nH]c1C2
Response given: > 92%

Challenge: Note, next up: C/C=C1\[C@H]2C=C(C)C[C@]1(Nc1ncccc1C)c1ccc(=O)[nH]c1C2
Response given: > 92%

Challenge: Note, next up: C/C=C1\[C@H]2C=C(C)C[C@]1(Nc1c(C)cc(OC)cc1C)c1ccc(=O)[nH]c1C2
Response given: 96%

----------
biological target: Acetylcholinesterase (Electrophorus electricus)
pIC50: −log10 of the molar value.
Binary classification by pIC50, with 5 as an inclusive lower bound for 1; all other cases are 0.

Challenge: Form field: pIC50 at least 5? Entry: C/C=C1\[C@H]2C=C(C)C[C@]1(Nc1c(C)cc(OC)cc1C)c1ccc(=O)[nH]c1C2
Response given: 1

Challenge: Note, next up: C/C=C1\[C@H]2C=C(C)C[C@]1(Nc1ccc(OC)cn1)c1ccc(=O)[nH]c1C2
Response given: 1

Challenge: Note, next up: C/C=C1\[C@H]2C=C(C)C[C@]1(Nc1cccc(C)c1)c1ccc(=O)[nH]c1C2
Response given: 0

Challenge: Note, next up: C/C=C1\[C@H]2C=C(C)C[C@]1(Nc1ncc(C)cc1C)c1ccc(=O)[nH]c1C2
Response given: 0

Challenge: Note, next up: C/C=C1\[C@H]2C=C(C)C[C@]1(Nc1ncccc1C)c1ccc(=O)[nH]c1C2
Response given: 0

Challenge: Note, next up: C/C=C1\[C@H]2C=C(C)C[C@]1(Nc1ccc(F)cc1)c1ccc(=O)[nH]c1C2
Response given: 1

Origin of measurements: ChEMBL document CHEMBL4840332
